TESTED_TARGET: Torsin-1A-interacting protein 2 (Homo sapiens)
EXPERIMENTAL_DETAILS: LULL1 binders on small-molecule microarray, primary screen, cell lysate, human LULL1 lysate, 635/667 nm fluorescence (AID 1092);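 also: probe is lysate of COS7 cells overexpressing human LULL1; score merges per-feature 667 nm fluorescence with signal-to-noise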
CONDITION_DETAILS: hLULL1 lysate binding, 635 nm fluorescence, higher = more signal
Measured composite z-score accompanies every entry in the list below.

Past entries and their recorded results:
- MOLECULE: "CC(C)(C)N1C(=O)[C@H]2[C@@H]3C(=CC[C@H]2C1=O)C(=O)[C@H]1O[C@H]1[C@H]3O"
  RESULT: -0.758
- MOLECULE: "CON=C(C)CCN1CCCc2nc(C)c(C)cc21"
  RESULT: 1.92
- MOLECULE: "CC=CC1=C(CO)[C@H](O)[C@H]2O[C@H]2[C@@H]1O"
  RESULT: 0.0048
- MOLECULE: "O=C1C2=CC[C@H]3C(=O)N(C4CCCCC4)C(=O)[C@H]3[C@H]2[C@H](O)[C@@H]2O[C@H]12"
  RESULT: 0.821

Query block: Entry COC(=O)[C@H](C)NC(=O)CCC1CC(OC(=O)NCc2cccc3ccccc23)CC2(CCCC(COC(=O)NCCOc3ccccc3)O2)O1 (stereo partly specified) , system Torsin-1A-interacting protein 2 (Homo sapiens): what composite z-score was measured?
Result block: 2.21

Query block: Check CC(CCN1CCc2nc(-c3ccccc3)c(-c3ccccc3)cc2C1)=NO[C@@H](C)c1cc(-c2c(C)cc(C)cc2C)no1 too.
Result block: 0.838

Value source: PubChem BioAssay
